# assayed-system: T1, MDM2 (In-house, 41 kD) (UniProt Q00987 1-138, limits assumed)
# T1 construct: Construct used in the FP assays is described only as in-house, 41 kD; also called HDM2
# T1 sequence (Q00987 1-138 limits assumed): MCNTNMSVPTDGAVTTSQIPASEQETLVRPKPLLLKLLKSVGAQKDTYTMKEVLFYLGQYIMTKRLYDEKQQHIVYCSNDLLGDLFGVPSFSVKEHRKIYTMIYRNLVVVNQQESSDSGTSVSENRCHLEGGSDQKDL
# protocol-text: competitive fluorescence polarization vs FAM-labeled linear peptide; grade of IC50 (MDM2); scale in paragraph 664: ++++ = <=10 nM
property-measured: IC50

Form: binder = LTFXAYWAQLXAAXA (N-terminal acetyl (Ac); position 4 = $4rn6 (alpha-Me R-azide 1,4 triazole, 6 carbon) crosslinked to position 11 = $4a5 (alpha-Me alkyne 1,4 triazole, 5 carbon); position 14 = Nle (norleucine); C-terminal amide (NH2), Triazole-crosslinked macrocycle of Formula I; also called Ac-LTF$4rn6AYWAQL$4a5AANleA-NH2) [SP-449] ; IC50 = ≤ 10 nM
